Below: a set of entries, each annotated with reported cell survival rate higher than that of Lipofectamine 3000.
tested on: 293T cells; assay: Cell survival rate assay (CCK-8); type: cell-based; conditions: difference of rates
Give just the number in %; leave the unit off.

Sample records with cell survival rate higher than that of Lipofectamine 3000:
CCCCCCCCCCCOC(=O)CCCCCN(CCCCCCCC(=O)OCC(CCCCCCCC)CCCCCCCC)CCN(C)CCO : 53.76
CCCCCCCCCCOC(=O)CCCN(CCCCCC(=O)OCC(CCCCCCCC)CCCCCCCC)CCN(C)CCO : 50.83
CCCCCCCCC(CCCCCCCC)COC(=O)CCCCCN(CCCCCC(=O)OCC(CCCCCCCC)CCCCCCCC)CCN(C)CCO : 53.64
CCCCCCCCCCCOC(=O)CCCCCN(CCCCCCCC(=O)OC(CCCCCCCC)CCCCCCCC)CCN(C)CCO : 52.88

Lab note: CCCCCCCCCCCOC(=O)CCCCCN(CCCCCCCC(=O)OC(CCCCCCC)CCCCCCC)CCN(C)CCO gave cell survival rate higher than that of Lipofectamine 3000 of 51.52

====

Test system: female BALB/C mice
Experiment: Mouse in vivo imaging of Fluc-mRNA LNP formulations
Parameters: unit not given here
Conditions: 6 h; 10 μg Fluc-mRNA LNP intramuscularly
Description: The LNP formulation containing 10 μg Fluc-mRNA (prepared according to Example 4) was injected intramuscularly into female BALB/C mice aged 4 to 6 weeks and weighing 17 to 19 g, and the mice were intraperitoneally injected with fluorescent imaging substrates at specific time points (6 h, 24 h, 48 h and 7 d) after administration. […]
Below: a set of entries, each annotated with reported average radiation intensity (mRNA expression).
Lab note: record the figure alone, no unit after it.

CCCCCCCCCCCOC(=O)CCCCCN(CCCCCCCC(=O)OC(CCCCCCCC)CCCCCCCC)CCN(C)CCO : 2858500
CCCCCCC(CCCCCC)CCOC(=O)CCCCCCCN(CCO)CCCCCCCC(=O)OCCC(CCCCCC)CCCCCC [Compound 23, reference compound] : 594050
CCCCCCCCC(CCCCCCCC)COC(=O)CCCCCN(CCCCCC(=O)OCC(CCCCCCCC)CCCCCCCC)CCN(C)CCNC : 10355
CCCCCCCCCCOC(=O)CCCN(CCO)CCCCCC(=O)OCC(CCCCCCCC)CCCCCCCC [YK-009, reference compound] : 1012400
CCCCCCCCCCCOC(=O)CCCCCN(CCCCCCCC(=O)OC(CCCCCCCC)CCCCCCCC)CCN(C)CCOC : 50564
CCCCCCCCC(CCCCCCCC)OC(=O)CCCCCCCN(CCO)CCCCCCCC(=O)OCCC(CCCCCC)CCCCCC [Compound 21, reference compound] : 600390
CCCCCCCCC(CCCCCCCC)COC(=O)CCCCCN(CCCCCC(=O)OCC(CCCCCCCC)CCCCCCCC)CCN(C)CCO : 2524250

Now examine the next entry.
Lab note: CCCCCCCCCCOC(=O)CCCN(CCCCCC(=O)OCC(CCCCCCCC)CCCCCCCC)CCN(C)CCO gave average radiation intensity (mRNA expression) of 1974100

====

test: Encapsulation rate, drug loading concentration and total RNA concentration detection (RiboGreen); format: physicochemical; details: difference of rates
Below: a set of entries, each annotated with reported encapsulation rate higher than that of compound 21.
Give just the number in %; leave the unit off.

Sample records with encapsulation rate higher than that of compound 21:
CCCCCCCCC(CCCCCCCC)COC(=O)CCCCCN(CCCCCC(=O)OCC(CCCCCCCC)CCCCCCCC)CCN(C)CCO : 38.40
CCCCCCCCCCOC(=O)CCCN(CCCCCC(=O)OCC(CCCCCCCC)CCCCCCCC)CCN(C)CCO : 33.00
CCCCCCCCCCCOC(=O)CCCCCN(CCCCCCCC(=O)OC(CCCCCCC)CCCCCCC)CCN(C)CCO : 33.60
CCCCCCCCCCCOC(=O)CCCCCN(CCCCCCCC(=O)OC(CCCCCCCC)CCCCCCCC)CCN(C)CCO : 31.70

Now examine the next entry.
Lab note: CCCCCCCCCCCOC(=O)CCCCCN(CCCCCCCC(=O)OCC(CCCCCCCC)CCCCCCCC)CCN(C)CCO gave encapsulation rate higher than that of compound 21 of 28.50
